- SYSTEM NAME: Matrix-associated proTGFβ1 (hLTBP1-proTGFβ1 and hLTBP3-proTGFβ1 complexes)
- METHOD: Octet (BLI); IgG1 from yeast; mean of hLTBP1 and hLTBP3
Catalogue of binders with associated ECM AVRG (average KD)
Respond numerically; units are nM and should not be typed.

Ab11 (antibody, V domains shown) VH: EVQLLESGGGLVQPGGSLRLSCAASGFTFRNYAMSWVRQAPGKGLEWVSSISGSGGATYYADSVKGRFTISRDNSKNTLYLQMNSLRAEDTAVYYCARVSSGHWDFDYWGQGTLVTVSS VL: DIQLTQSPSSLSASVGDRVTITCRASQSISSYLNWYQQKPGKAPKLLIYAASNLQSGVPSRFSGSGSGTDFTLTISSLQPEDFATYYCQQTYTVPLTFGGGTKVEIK
0.161
Ab17 (antibody, IgG1, V domains shown) VH: EVQLLESGGGVVQPGGSLRLSCAASGFTFSSFAMTWVRQAPGKGLEWVSAISGSGAATYFADSVKGRFTISRDNSKNTLYLQMNSLRAEDTAVYYCARVSSGHWDFDYWGQGTLVTVSS VL: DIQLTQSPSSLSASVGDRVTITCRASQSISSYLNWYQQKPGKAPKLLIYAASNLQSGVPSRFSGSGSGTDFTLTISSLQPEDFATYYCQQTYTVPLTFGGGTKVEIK
0.191

Data request, read-out ECM AVRG (average KD), for Ab16 (antibody, IgG1, V domains shown) VH: EVQLLESGGGLVQPGGSLRLSCAASGFTFSNYAMSWVRQAPGKGLEWVSAISGSGFTTYYADSVKGRFTISRDNSKNTLYLQMNSLRAEDTAVYYCARVSSGHWDFDYWGQGTLVTVSS VL: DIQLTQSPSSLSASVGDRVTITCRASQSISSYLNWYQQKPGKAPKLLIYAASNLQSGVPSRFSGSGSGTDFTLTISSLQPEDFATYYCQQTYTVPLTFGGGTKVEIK 0.157

Further, for Ab13 (antibody, IgG1, V domains shown) VH: EVQLLESGGGLVQPGGSLRLSCAASGFTFADYAMTWVRQAPGKGLEWVSAISSFASAIYYADSVKGRFTISRDNSKNTLYLQMNSLRAEDTAVYYCARVSSGHWDFDYWGQGTLVTVSS VL: DIQMTQSPSSLSASVGDRVTITCRASQSISSYLNWYQQKPGKAPKLLIYAASSLQSGVPSRFSGSGSGTDFTLTISSLQPEDFATYYCQQVYDPPLTFGGGTKVEIK ? 0.263

Further, for Ab18 (antibody, IgG1, V domains shown) VH: QVQLVESGGGVVQPGRSLRLSCAASGFTFSDYAMVWVRQAPGKGLEWVSAISGSGAATYFADSVKGRFTISRDNSKNTLYLQMNSLRAEDTAVYYCATVSSGHWDFDYWGQGTLVTVSS VL: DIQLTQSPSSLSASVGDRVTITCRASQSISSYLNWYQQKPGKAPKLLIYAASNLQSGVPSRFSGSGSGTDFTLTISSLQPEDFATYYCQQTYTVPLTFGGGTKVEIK ? 0.284
